Ref: PubChem BioAssay (NCI)

# Test system: MDA-MB-435 melanoma
# assayMethodText: NCI-60 one-dose screen, 48 h
# testConditions: 10 µM unless noted
# Protocol: Growth inhibition of the MDA-MB-435 human Melanoma tumor cell line is measured as a screen for anti-cancer activity. Cells are grown in 96 well plates and exposed to the test compound for 48 hours. Compounds are tested at a single concentration, which is 10^-5 M for most compounds. The reported endpoint is percent growth (GI% or GIPRCNT), where numbers from 0 - 100% represent growth inhibition, and numbers from -100% - 0 represent cell death. […]
Compounds without any hit were thinned out: in the full panel of roughly 83,000, 20% have a hit. Calls of active or inactive are those of the source. The calls were made as follows: active = growth percent below 10; inactive = the rest.
Outcome field: choose from true for active, false for inactive

Consider the worked cases shown below.
# compound, classification
measured = [
    ("O=C(Nc1cccc(C2=NCCN2)c1)c1cccc(C(=O)Nc2cccc(C3=NCCN3)c2)c1", "false"),
    ("O=C1NC(=O)C(Cc2ccccc2)(Cc2ccccc2)N1", "false"),
    ("O=C(Nc1ccc(Oc2ccc(F)cc2)c(Cl)c1)c1cccnn1", "false"),
    ("CCN(CC)c1ccc2cc(C(Nc3ccc(Cl)cc3)c3nnnn3C(C)(C)C)c(=O)oc2c1 (centres undefined)", "false"),
    ("CC(=O)Nc1ccc2nc3ccc(NC(C)=O)cc3[n+](-c3ccccc3)c2c1", "false"),
]

// outcome(item) with item = "Cc1cnc(N)nc1OCCNC(=O)c1cccc(-c2ccc(S(=O)(=O)Nc3ccc4c(c3)N(C(=O)C3CC3)CCC4)cc2)c1"
false

====

# Test system: MCF7 breast
# assayMethodText: NCI-60 one-dose screen, 48 h (100 = growth as untreated, 0 = no growth, -100 = all killed)
# testConditions: 10 µM unless noted
The panel holds about 83,000 compounds, 20% with a hit somewhere; the sample as a whole holds those more often.
Below, each of the molecules is paired with its reported growth value.
# value in %; strip the unit string

Some solved entries appear below for comparison.
# smilesData, testValue
data = [
    ("Clc1ccc2nc(-c3ccc(-c4ccc(/C=N/NC5=NCCN5)cc4)s3)cn2c1", 79.4),
    ("COc1ccc(-c2nc3ccccn3c2/C=C/C(=O)c2cc(OC)c(OC)c(OC)c2)cc1OC", 4.01),
    ("O=C(Nc1ccc(Oc2ccc(F)cc2)c(Cl)c1)c1cccnn1", 65.3),
    ("Cc1cc(-c2ccc(N=Nc3c(S(=O)(=O)O)cc4cc(S(=O)(=O)O)cc(N)c4c3O)c(C)c2)ccc1N=Nc1cc(S(=O)(=O)O)c2ccccc2c1O", 92.2),
    ("C#C[C@]1(O)CC[C@H]2[C@@H]3CC=C4c5nc(Nc6ncccn6)sc5CC[C@]4(C)[C@H]3CC[C@@]21C", 59.7),
    ("C#C[C@]1(O)CC[C@H]2[C@@H]3CC=C4c5nc(Nc6ccccc6[N+](=O)[O-])sc5CC[C@]4(C)[C@H]3CC[C@@]21C", 56.9),
]

Entry "CC(=O)Nc1ccc2nc3ccc(NC(C)=O)cc3[n+](-c3ccccc3)c2c1" needs its growth filled in; supply it.
73.1

Fill in reported growth for this entry: "COc1ccc(C=C2c3ccccc3-c3ccccc32)cc1"
13

Specify growth for "CCOC(=O)c1cc(C#N)n2ncc3ccccc3c12" and stop.
87.2

====

# System: BT-549 breast
# assayMethodText: NCI-60 one-dose screen, 48 h
# testConditions: 10 µM unless noted
The panel holds about 83,000 compounds, 20% with a hit somewhere; the sample as a whole holds those more often. Activity calls are given as the source filed them. The calls were made as follows: active = growth percent below 10; inactive = the rest.
Your response should consist of one outcome taken from TRUE = active, FALSE = inactive

Check out these entries, answers already filled in.
# compound, classification
rows = [
    ("C=C(C)[C@@H]1CC[C@]2(C(=O)NCCNCCNC(=O)OC(C)(C)C)CC[C@]3(C)[C@H](CC[C@@H]4[C@@]5(C)CCC(=O)C(C)(C)[C@@H]5CC[C@]43C)[C@@H]12", "FALSE"),
    ("Nc1cccc2c1C(=O)c1cccc(NC(=O)c3ccccc3)c1C2=O", "FALSE"),
    ("C[C@H]1[C@H](C)CC[C@]2(COC(=O)CCC(=O)O)CC[C@]3(C)C(=CC[C@@H]4[C@@]5(C)CCCNC(C)(C)[C@@H]5CC[C@]43C)[C@H]12", "FALSE"),
    ("CC[C@]12C=CCN3CC[C@@]4(c5ccc(OC)cc5N(C)[C@H]4[C@@](O)(C(=O)OC)[C@@H]1OC(=O)CCC(=O)O[C@H]1CC[C@H]4[C@@H]5CCC6=CC(=O)CC[C@@H]6[C@H]5CC[C@]14C)[C@@H]32", "TRUE"),
]

How was CCN(CC)c1ccc2cc(C(Nc3ccc(Cl)cc3)c3nnnn3C(C)(C)C)c(=O)oc2c1 (stereo not given) classified in this test?
FALSE
